testSystem: URAT1 (Homo sapiens (Human), UniProt Q96S37)
Sequence (Q96S37 whole entry, species assumed): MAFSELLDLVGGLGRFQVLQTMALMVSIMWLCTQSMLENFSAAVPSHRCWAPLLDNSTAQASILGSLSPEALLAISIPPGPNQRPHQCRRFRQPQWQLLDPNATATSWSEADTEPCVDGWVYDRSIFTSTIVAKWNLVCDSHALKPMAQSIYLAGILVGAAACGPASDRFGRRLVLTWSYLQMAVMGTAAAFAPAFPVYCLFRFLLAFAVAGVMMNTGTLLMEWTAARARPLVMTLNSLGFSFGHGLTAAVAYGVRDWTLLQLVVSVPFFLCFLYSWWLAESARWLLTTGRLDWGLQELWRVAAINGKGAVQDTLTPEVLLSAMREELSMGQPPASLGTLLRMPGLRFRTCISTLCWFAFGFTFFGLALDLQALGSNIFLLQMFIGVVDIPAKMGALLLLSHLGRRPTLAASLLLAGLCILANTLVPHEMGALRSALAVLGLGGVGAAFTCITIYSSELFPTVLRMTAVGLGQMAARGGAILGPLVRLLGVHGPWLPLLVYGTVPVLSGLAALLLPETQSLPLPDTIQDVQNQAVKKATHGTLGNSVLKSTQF
assayProtocol: URAT1-model assay, 14C-uric acid transport in HEK293/URAT1-model cells
testSettings: 14C-uric acid 125 μM, 10 minutes at room temperature, read-out: URAT1 EC50 Activity Ranking
Description: HEK293 human embryonic kidney cells (ATCC #CRL-1573) were propagated in EMEM tissue culture medium as described by ATCC in an atmosphere of 5% C02 and 95% air. Transfections of HEK293 cells with a model URAT1 construct was performed using L2000 transfection reagent (Invitrogen) as described by the manufacturer. […] Cells were grown overnight (20-26 hours) at 37° C. in an incubator. […] Plates are then read on the TopCount Plate Reader and an EC50 value generated. […]
pEC50: −log10 of the molar value.
recordedEndpoint: pEC50

The examples below pair each entry with its known result.
CC(C)(Sc1ccncc1-c1ccc(C(F)(F)F)cc1)C(=O)O ... 6.30 to 7.30
CC(C)(Sc1ccncc1-c1ccc(Br)c2ccccc12)C(=O)O ... 6.30 to 7.30
CC(C)(Sc1cccnc1-c1ccc(C#N)cc1)C(=O)O ... 6.30 to 7.30
COc1ccc(-c2cnccc2SC(C)(C)C(=O)O)cn1 ... 6.30 to 7.30

// query pEC50 value for entry "CC(C)(Sc1ccncc1-c1cccc2ccccc12)C(=O)O" 6.30 to 7.30

How about this compound: "CC(C)(Sc1ccncc1-c1ccc(C#N)c(F)c1)C(=O)O" 6.30 to 7.30

What do you have for "CC(C)(Sc1ccncc1-c1ccc(S(C)(=O)=O)cc1)C(=O)O" ? 6.30 to 7.30

Item: "CC(C)(Sc1ccncc1-c1ccc(F)c2ccccc12)C(=O)O" 7.30 to 9.00

Recorded values, source patent US10919858B2.
